Property: melting point

melting point for Nc1ccc(C(=O)c2cccnc2)cc1 ? 107 °C

melting point for Cc1nsc2ccc(-n3c(=O)c(Cl)c(C(F)(F)F)n(C)c3=O)cc12 ? 252 to 254 °C

melting point for CC(=O)c1sc(-c2ccncc2)c(C)c1-c1ccncc1 ? 117 to 118 °C

melting point for Cc1cc(SC(C)C)c(NC(=O)CCCCCCSc2nc3ccccc3[nH]2)c(SC(C)C)n1 ? 118 to 121 °C

melting point for CCOC(=O)c1ccc(C(=O)CBr)cc1 ? 67 to 68.5 °C

melting point for CCOC(=O)c1cc(-c2ccc(Cl)cc2)cnc1C(F)(F)F ? 84 to 85 °C

melting point for CC(O)(C#Cc1ccc(S(=O)(=O)N2CCCC2)cc1)C(F)(F)F (stereo not given) ? 140 to 143 °C

melting point for CCCc1ccnc2c(=O)[nH]c(-c3cc(N)ccc3OCC)nc12 ? 156 to 158 °C

melting point for NC(=O)N1C(=O)C(=C(OC(=O)c2cccnc2)c2cccs2)c2cc(F)c(Cl)cc21 ? 201 to 202 °C

melting point for NS(=O)(=O)c1ccc(-n2nc(C(F)(F)F)cc2-c2ccc(-c3cscn3)c(O)c2)cc1F ? 224 to 226 °C

---

Give measured melting point for each item. Keep answers brief.

melting point for CS(=O)(=O)c1ccc(Oc2cc(OCc3ccccc3)c3[nH]c(-c4ncc(CO)s4)cc3c2)cc1 ? 125 to 126 °C

melting point for Cc1ccc(-c2cc(F)c(F)cc2-c2ccc(S(N)(=O)=O)cc2)cc1 ? 103 to 104 °C

melting point for CC(C)(C)OC(=O)/C=C/c1cc2ncc(C#N)c(Cl)c2s1 ? 193 to 194 °C

melting point for CC(=O)OC1CCC2(C)C(CCC3C2CCC2(C)C(N)C(O)CC32)C1 (stereo unspecified) ? 192 to 193 °C

melting point for COc1ccc(CSc2nnc(-c3ccn4ncnc4c3)o2)cc1C(F)(F)F ? 178 to 179 °C

melting point for CC(C)(C)n1ncc(Cl)c(NCCN2CCN(c3cccc4c3OCCO4)CC2)c1=O ? 177 to 178 °C

melting point for O=C(O)Cc1ccc2ccn(C(=O)c3ccccc3)c2c1 ? 113 to 115 °C

melting point for O=C(Cl)N1CCNC1=O ? 150 °C

melting point for CCC(=O)N1C(=O)c2cc(C)ccc2Oc2ncccc21 ? 142 to 145 °C

melting point for COc1cccn2c(=O)c(CCN3CCC(c4noc5cc(F)ccc45)CC3)c(C)nc12 ? 209 °C

melting point for COc1ccc(NC(=O)c2ccc(Br)s2)cc1N1CCN(C)CC1 ? 114 to 115 °C

melting point for O=C(NCCc1cccc2ccc(OC3CCCCC3)cc12)C1CCC1 ? 116 to 118 °C

melting point for COC1=C(OC)C(=O)C(CO)=C(C)C1=O ? 52 to 54 °C

melting point for CC(C)NC1=NS(=O)(=O)c2cc(C(C)(C)C)ccc2N1 ? 128 to 130 °C

melting point for CCOC(=O)COc1ccccc1C(=O)Nc1ccccc1Sc1ccccc1-c1nnn[nH]1 ? 145 to 146 °C

melting point for CCS(=O)(=O)c1cccc(-c2nc(=O)c3ccccc3s2)n1 ? 202 to 203 °C

melting point for CCc1cn2c(N)c(Cl)cc(C(=O)NCC3CCN(CCc4ccc(C(C)(C)C)cc4)CC3)c2n1 ? 220 °C

melting point for CCOC(=O)c1cc(Cl)nc(SCc2ccc3ccccc3c2)n1 ? 95 to 96 °C

melting point for OCCCNC1=Nc2ccccc2C1(O)c1ccccc1 (stereo unspecified) ? 215 to 217 °C

melting point for OC(CNC1CCc2ccccc2C1)COc1ccc2ccccc2c1 (stereo unspecified) ? 102 to 115 °C

melting point for O=C(O)c1ccc(Cl)c(S(=O)(=O)NC2CCCCCCC2)c1 ? 134 °C

Entry source: a melting point compilation (Tetko et al.; mined from patent text by program, amines drawn as free bases though some values may be those of a salt)
